The measurements presented in this section are drawn from patent US20250332173A1.

tested on: MYB; experiment: HiBiT protein abundance assay, MYB HiBiT K562 cell line; assay type: cell-based, human; conditions: HiBiT lytic detection, modified K562 cells, 24 hours, top dose 10 μM; read-out: Effect on protein abundance, MYB (IC50)
Each entry below carries its recorded IC50.

molecule="Cc1cn2nc(-c3ccc4c(=O)n(C5CCN(CC6CC6)C6(CC6)C5)ncc4n3)cc(C)c2n1 (centres unmarked) [Compound 1543]" result_type=IC50 reported="0.1 to 1 µM"
molecule="Cc1cc(-c2ccc3ncn(C4CCNCC4)c(=O)c3c2)cc2cn(C)nc12 [Compound 2169]" result_type=IC50 reported="> 10 µM"
molecule="Cn1cc2cc(-n3cnc4ccc(N5CCNCC5)cc4c3=O)cc(F)c2n1 [Compound 2196]" result_type=IC50 reported="> 10 µM"

Report its IC50 with MYB as the test system: Cc1cc(-c2ccc3ncn(C4CCN(C)CC4)c(=O)c3c2)cc2cn(C)nc12 [Compound 2170]
> 10 µM

Report its IC50 with MYB as the test system: Cc1cn2cc(-n3cnc4ccc(N(C)C5CCNCC5)cc4c3=O)cc(F)c2n1 [Compound 2200]
> 10 µM
